experiment: Cytotoxicity against human A549 cells by MTT assay; format: cell-based
Measured metric: CC50 (µM)
Lab book: enter the figure in µM, no units written.

Here are 5 compounds together with their reported answers.
CCCCCCCCNc1ccn([C@@H]2O[C@H](CO)[C@@H](O)[C@H]2O)c(=O)n1; 90
CCCCCCCCCCCCNc1nc(=O)n([C@H]2C[C@H](O)[C@@H](CO)O2)cc1C; 158
O=c1nc(NCCCCc2ccccc2)ccn1[C@H]1C[C@H](O)[C@@H](CO)O1; 90
CCCCCCCCCCNc1ccn([C@@H]2O[C@H](CO)[C@@H](O)[C@H]2O)c(=O)n1; 90
CCCCCCCCNc1ccn([C@H]2C[C@H](O)[C@@H](CO)O2)c(=O)n1; 90

Please fill in: CC50 reported for CCCCCCNc1nc(=O)n([C@H]2C[C@H](O)[C@@H](CO)O2)cc1C = 90

response.value for CCCCCCCCCCNc1nc(=O)n([C@H]2C[C@H](OC(=O)OCCOCCOCCO)[C@@H](CO)O2)cc1C (field: CC50) = 90

So for CCCCCCCCCCNc1nc(=O)n([C@H]2C[C@H](O)[C@@H](CO)O2)cc1C , the logged CC50 turned out to be 156

# CC50 of CCCCCCCCCCCCNc1nc(=O)n([C@H]2C[C@H](OC(=O)OCCOCCOCCO)[C@@H](CO)O2)cc1C = 90

What the record says about CCCCCCCCCCCCNc1ccn([C@H]2C[C@H](O)[C@@H](CO)O2)c(=O)n1 : CC50 is 100

Sample CCCCCCCCNc1nc(=O)n([C@H]2C[C@H](O)[C@@H](CO)O2)cc1C ; CC50 observed: 90

CC50 recorded for this compound, CCCCCCCCCCCCCCNc1ccn([C@H]2C[C@H](O)[C@@H](CO)O2)c(=O)n1 , is 90

GET /value?item= CCCCCCCCCCNc1ccn([C@H]2C[C@H](O)[C@@H](CO)O2)c(=O)n1 &field=CC50 returns 200

CC50 for COCCOCCOCCNc1nc(=O)n([C@H]2C[C@H](O)[C@@H](CO)O2)cc1C is 90

// Cc1cn([C@H]2C[C@H](O)[C@@H](CO)O2)c(=O)nc1NCCc1ccccc1 : CC50 value = 90

====

Measured MIC by item
system: Bacillus subtilis; test: Antibacterial activity against Bacillus subtilis ATCC 6633; format: functional

Per the records, this compound ( CCCCCCCCCCNc1ccn([C@@H]2O[C@H](CO)[C@@H](O)[C@H]2O)c(=O)n1 ) has MIC equal to > 200 µM

Reported MIC ( Cc1cn([C@H]2C[C@H](O)[C@@H](CO)O2)c(=O)nc1NCCc1ccccc1 ) = > 200 µM

// sample CCCCCCCCNc1ccn([C@H]2C[C@H](O)[C@@H](CO)O2)c(=O)n1 , its MIC was > 200 µM

====

assay: Subchronic toxicity in ip dosed mouse assessed as delayed effect administered for 5 days and observed for 4 weeks; type: organism-based; details: in vivo
Measured metric: LD50 at 672 h (mg/kg)
Express the result in mg/kg but write the number alone.

Note to self: LD50 at 672 h recorded for CCCCCCCCCCCCNc1nc(=O)n([C@H]2C[C@H](O)[C@@H](CO)O2)cc1C was 200

Source of measurements: ChEMBL document CHEMBL4732208
